Listed compounds paired with reported Changes of blood pressure
- System: renal hypertensive rats
- procedure-text: Antihypertensive activity in renal hypertensive rats, i.m. (Table 3)
- Type: in vivo, rat
- test-parameters: 30 mg/kg/day i.m.; 2nd day, 0 h (immediately before administration)
measure: Changes of blood pressure (mmHg)

{"compound": "CCC=CCC=CCC=CCCCCCCCC(=O)NCCOP(=O)(O)OCCN [(1)]", "target-of-assay": "renal hypertensive rats", "measured-value": -6}
{"compound": "CCC=CCC=CCC=CCCCCCCCC(=O)OCC(COP(=O)(O)OCCN)OC(=O)CCCCCCCCCCCCCCCCC (racemic) [(b), reference compound]", "target-of-assay": "renal hypertensive rats", "measured-value": -4}
{"compound": "CCCCCC=CCC=CCCCCCCCC(=O)NCCCOP(=O)(O)OCCN [(4)]", "target-of-assay": "renal hypertensive rats", "measured-value": -7}
{"compound": "CCC=CCC=CCC=CCCCCCCCC(=O)NCCCOP(=O)(O)OCCN [Compound (2)]", "target-of-assay": "renal hypertensive rats", "measured-value": -1}
{"compound": "CCCCCC=CCC=CCCCCCCCC(=O)NCCOP(=O)(O)OCCN [(3)]", "target-of-assay": "renal hypertensive rats", "measured-value": -1}

====

- target-of-assay: Renin (Homo sapiens, UniProt P00797)
- Sequence (P00797 67-406): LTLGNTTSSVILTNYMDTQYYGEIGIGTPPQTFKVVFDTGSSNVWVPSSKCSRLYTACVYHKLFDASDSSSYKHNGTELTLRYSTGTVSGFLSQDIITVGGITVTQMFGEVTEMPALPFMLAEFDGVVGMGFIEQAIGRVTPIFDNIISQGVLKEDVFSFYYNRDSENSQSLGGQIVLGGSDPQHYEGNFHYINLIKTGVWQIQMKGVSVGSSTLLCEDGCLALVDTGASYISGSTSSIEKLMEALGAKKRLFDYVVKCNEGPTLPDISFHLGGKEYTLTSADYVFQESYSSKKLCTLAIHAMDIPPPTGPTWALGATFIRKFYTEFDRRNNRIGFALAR
- procedure-text: Renin-inhibitory activity, Method I (inhibition of Angiotensin I formation, RIA)
- Type: biochemical
- test-parameters: Table 2; 37°C, 4 hours, 1.25 mg/ml; read-out: Rate of inhibiting the formation of Angiotensin I determined by Method I
inhibition at 1250 µg/mL vs 70%: at or above is yes, below is no.

{"compound": "NCCOP(=O)(O)OCCCNC(=O)COc1ccc(Oc2ccc(Cl)cc2)cc1", "class-name": "no"}
{"compound": "NCCOP(=O)(O)OCCNC(=O)COc1ccc(Oc2ccc(Cl)cc2)cc1", "class-name": "yes"}
{"compound": "CCC=CCC=CCC=CCCCCCCCC(=O)OCC(COP(=O)(O)OCCN)OC(=O)CCCCCCCCCCCCCCCCC (racemic) [(b), reference compound]", "class-name": "no"}
{"compound": "CCC=CCC=CCC=CCCCCCCCC(=O)NCCOP(=O)(O)OCCN", "class-name": "no"}
{"compound": "CCCCCC=CCC=CCC=CCC=CCCCC(=O)OCC(COP(=O)(O)OCCN)OC(=O)CCCCCCCCCCCCCCCCC (racemic) [(a), reference compound]", "class-name": "no"}
{"compound": "CC(Oc1ccc(Oc2ccc(Cl)cc2)cc1)C(=O)NCCOP(=O)(O)OCCN (stereo not shown)", "class-name": "yes"}
{"compound": "CCCCCC=CCC=CCCCCCCCC(=O)NCCOP(=O)(O)OCCN", "class-name": "no"}
{"compound": "CCC=CCC=CCC=CCCCCCCCC(=O)NCCCOP(=O)(O)OCCN", "class-name": "yes"}
{"compound": "CCCCCC=CCC=CCCCCCCCC(=O)NCCCOP(=O)(O)OCCN", "class-name": "no"}
{"compound": "CC(Oc1ccc(Oc2ccc(Cl)cc2)cc1)C(=O)NCCCOP(=O)(O)OCCN (stereo not shown)", "class-name": "no"}
